# Test system: T47D
# Test Description: Growth inhibition of human T47D cells at 10 uM after 48 hrs by sulforhodamine B assay
# Type: functional
# Assay Conditions: values are per cent of control
Readout Type: growth, % of control at 10 µM (%)

>>> measured_number("N#C/C(=C\\c1ccc2ccccc2n1)c1ccc2c(c1)OCO2")
69.4
>>> measured_number("COc1ccc(/C(C#N)=C/c2ccc3c(c2)OCO3)cc1")
70
>>> measured_number("N#C/C(=C\\c1cc2ccccc2s1)c1ccc2c(c1)OCO2")
70.4

Attribution: ChEMBL document CHEMBL3792365
